These measurements were taken from ChEMBL document CHEMBL1127932.

tested system: Type-1 angiotensin II receptor (Bos taurus, UniProt P25104)
Sequence (P25104 whole entry): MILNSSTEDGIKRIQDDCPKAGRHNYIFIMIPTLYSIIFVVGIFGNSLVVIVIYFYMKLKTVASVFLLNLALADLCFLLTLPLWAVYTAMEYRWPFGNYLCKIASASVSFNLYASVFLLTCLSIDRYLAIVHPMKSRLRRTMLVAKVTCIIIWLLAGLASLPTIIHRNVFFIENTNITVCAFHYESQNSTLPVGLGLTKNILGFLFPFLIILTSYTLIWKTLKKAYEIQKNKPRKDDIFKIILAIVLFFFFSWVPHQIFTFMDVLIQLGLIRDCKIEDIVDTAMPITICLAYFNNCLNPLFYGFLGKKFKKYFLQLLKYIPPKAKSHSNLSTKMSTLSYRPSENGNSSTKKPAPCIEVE
method: In vitro Angiotensin II receptor antagonism in bovine adrenal cortex tissue.
reported metric: IC50 (nM)

Example cases with answers are listed next.
CCCCc1nc2ccc([C@]3(c4ccccc4)C[C@H]4CCCN4O3)cc2c(=O)n1Cc1ccc(-c2ccccc2-c2nnn[nH]2)cc1	56
CCCCc1nc2ccc([C@@H]3C[C@@]4(C)CCCCN4O3)cc2c(=O)n1Cc1ccc(-c2ccccc2-c2nn[nH]n2)cc1	65
CCCCc1nc2ccc([C@]3(C(=O)OC)C[C@H]4CCCN4O3)cc2c(=O)n1Cc1ccc(-c2ccccc2-c2nnn[nH]2)cc1	79
CCCCc1nc2ccc([C@]3(C(=O)N(C)C)C[C@H]4CCCN4O3)cc2c(=O)n1Cc1ccc(-c2ccccc2-c2nnn[nH]2)cc1	57
CCCCc1nc2ccc([C@]3(C(=O)O)C[C@H]4CCCN4O3)cc2c(=O)n1Cc1ccc(-c2ccccc2-c2nnn[nH]2)cc1	46

a. CCCCc1nc2ccc([C@@]3(CC)C[C@H]4CCCN4O3)cc2c(=O)n1Cc1ccc(-c2ccccc2-c2nnn[nH]2)cc1
b. CCCCc1nc2ccc(C(C)(C)OC)cc2c(=O)n1Cc1ccc(-c2ccccc2-c2nn[nH]n2)cc1
Ask: Lower IC50: a or b ? Write the label of whichever entry you select.
Result: b

====

tested system: Angiotensin II receptor (Rattus norvegicus, UniProt P29089+P25095+P35351)
method: In vitro Angiotensin II receptor antagonist activity in rat adrenal cortex tissue.
Assay type: functional, tissue-based
reported metric: IC50 (nM)

Example cases with answers are listed next.
CCCCc1nc2ccc(-c3cccs3)cc2c(=O)n1Cc1ccc(-c2ccccc2-c2nn[nH]n2)cc1	44
CCCCc1nc2ccc(-c3ccco3)cc2c(=O)n1Cc1ccc(-c2ccccc2-c2nn[nH]n2)cc1	47

A. CCCCc1nc2ccc(C3CCCO3)cc2c(=O)n1Cc1ccc(-c2ccccc2-c2nn[nH]n2)cc1 (centres undefined)
B. CCCCc1nc2ccc(C3C=CCO3)cc2c(=O)n1Cc1ccc(-c2ccccc2-c2nn[nH]n2)cc1 (centres undefined)
Ask: Among A and B , which shows a numerically higher IC50 result? Write the label of whichever entry you select.
Result: A
(A: 11 nM, B: 5 nM)

====

tested system: Type-1 angiotensin II receptor (Bos taurus)
method: In vitro Angiotensin II receptor antagonism in bovine adrenal cortex tissue.
pIC50: −log10 of the molar value.
reported metric: pIC50

CCCCc1nc2ccc(C3CC(C(=O)O)=NO3)cc2c(=O)n1Cc1ccc(-c2ccccc2-c2nn[nH]n2)cc1 (stereo unspecified)	6.30
CCCCc1nc2ccc([C@H]3ON4CCCC4C3C(=O)OCC)cc2c(=O)n1Cc1ccc(-c2ccccc2-c2nn[nH]n2)cc1 (stereo partly specified)	7.16
CCCCc1nc2ccc([C@@H]3C[C@H]4CCCN4O3)cc2c(=O)n1Cc1ccc(-c2ccccc2-c2nnn[nH]2)cc1	7.49

P. CCCCc1nc2ccc(C3(C(=O)N4CCCC4)C[C@H]4CCCN4O3)cc2c(=O)n1Cc1ccc(-c2ccccc2-c2nnn[nH]2)cc1 (stereo partly specified)
Q. CCCCc1nc2ccc(C3CC(c4cc(C)cs4)=NO3)cc2c(=O)n1Cc1ccc(-c2ccccc2-c2nnn[nH]2)cc1 (stereo unspecified)
Ask: Among P and Q , which shows a numerically higher pIC50 result? Write the label of whichever entry you select.
Result: P
(P: 7.16, Q: 6.39)

P. CCCCc1nc2ccc([C@]3(C)C[C@H]4CCC(C)(C)N4O3)cc2c(=O)n1Cc1ccc(-c2ccccc2-c2nnn[nH]2)cc1
Q. CCCCc1nc2ccc(C3CC(c4cc(C)co4)=NO3)cc2c(=O)n1Cc1ccc(-c2ccccc2-c2nnn[nH]2)cc1 (stereo unspecified)
R. CCCCc1nc2ccc([C@]3(C)C[C@H]4CCCN4O3)cc2c(=O)n1Cc1ccc(-c2ccccc2-c2nn[nH]n2)cc1
S. CCCCc1nc(Cl)c(CO)n1Cc1ccc(-c2ccccc2-c2nnn[nH]2)cc1
Ask: Sequence the entries by pIC50, beginning with the highest number. Quick reminder: the answer is the labels in the order asked.
Result: R, P, Q, S
